Quick list: kcat/Km (mM^-1 · min^-1) per entry.
- target_entity: T1, Z-Phe-Arg-MCA
- T1 chain: FR
The answer should be a number; do not append a unit.

1. Bovine EP serine protease (New England Biolabs) (protein) IVGGSDSREGAWPWVVALYFDDQQVCGASLVSRDWLVSAAHCVYGRNMEPSKWKAVLGLHMASNLTSPQIETRLIDQIVINPHYNKRRKNNDIAMMHLEMKVNYTDYIQPICLPEENQVFPPGRICSIAGWGALIYQGSTADVLQEADVPLLSNEKCQQQMPEYNITENMVCAGYEAGGVDSCQGDSGGPLMCQENNRWLLAGVTSFGYQCALPNRPGVYARVPRFTEWIQSFLH : 1500

Turning now to a further protein:
Looking up porcine EP serine protease domain (Ile800 to His1034) (protein) IVGGNDSREGAWPWVVALYYNGQLLCGASLVSRDWLVSAAHCVYGRNLEPSKWKAILGLHMTSNLTSPQIVTRLIDEIVINPHYNRRRKDSDIAMMHLEFKVNYTDYIQPICLPEENQVFPPGRICSIAGWGKVIYQGSPADILQEADVPLLSNEKCQQQMPEYNITENMMCAGYEEGGIDSCQGDSGGPLMCLENNRWLLAGVTSFGYQCALPNRPGVYARVPKFTEWIQSFLH , I see its kcat/Km (mM^-1 · min^-1) listed as 280
